ASSAY_TARGET: HLA-A*0206 (human)
ASSAY_INFO: 125I-probe peptide inhibition, purified HLA
Non-standard residues stand in square brackets, D forms with d. No end group written: not given here. Abu = CC[C@H](N)C(=O)O
PARAMETER: IC50 (µM)
Numbers only here, please. The scale is µM.

Entry [Abu]QLAKT[Abu]PV [p53.135B1B7] , IC50 reported as 0.067

# credit: patent US20040048790A1
